Data provenance: ChEMBL document CHEMBL6177931

target: Acetylcholinesterase (Electrophorus electricus, UniProt O42275); test: Inhibition of electric eel AChE using […] as substrate measured after 2 mins by Ellman's reagent based spectrophotometric analysis
Sequence (O42275 whole entry): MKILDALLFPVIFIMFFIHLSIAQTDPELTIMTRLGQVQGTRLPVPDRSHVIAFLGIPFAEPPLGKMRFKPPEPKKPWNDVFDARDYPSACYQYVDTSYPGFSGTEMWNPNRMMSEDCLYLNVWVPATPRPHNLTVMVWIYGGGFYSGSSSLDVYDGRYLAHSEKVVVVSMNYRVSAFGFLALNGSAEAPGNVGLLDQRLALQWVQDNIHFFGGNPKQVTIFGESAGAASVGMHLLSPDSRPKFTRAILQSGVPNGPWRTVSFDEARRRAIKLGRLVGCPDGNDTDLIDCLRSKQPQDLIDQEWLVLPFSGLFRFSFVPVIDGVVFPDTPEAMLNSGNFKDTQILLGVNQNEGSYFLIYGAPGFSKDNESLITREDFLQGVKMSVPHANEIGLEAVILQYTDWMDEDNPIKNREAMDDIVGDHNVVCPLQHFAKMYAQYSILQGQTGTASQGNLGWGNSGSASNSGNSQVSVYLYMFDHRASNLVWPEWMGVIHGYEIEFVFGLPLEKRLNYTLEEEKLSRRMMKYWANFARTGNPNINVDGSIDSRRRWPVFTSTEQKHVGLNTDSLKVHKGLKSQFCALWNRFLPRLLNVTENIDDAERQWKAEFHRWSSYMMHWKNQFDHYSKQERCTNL
Give measured IC50 for each item. Keep answers brief.
Numbers only, in µM.

# batch size: 2; output IC50 per entry
1. COc1cc(/C=C/C(=O)NCCNc2cc(C)nc3ccccc23)ccc1OCc1ccc(Br)cc1
2. COc1cc(/C=C/C(=O)NCCCNc2cc(C)nc3ccccc23)ccc1OCc1ccccc1

[0.62, 2.47]

###

assay: Cytotoxicity against African green monkey Vero cells assessed as reduction in cell viability incubated for 3 to 10 days by MTS assay; type: toxicity, cell-based; conditions: chlorocebus sabaeus, time 3-10 day
QUANTITY KIND: CC50 (µM)
Give bare numbers, in µM.

Fill blank: measured CC50 of the compound C/C(=C\C(=O)NCCCCNc1cc(C(F)(F)F)nc2c(C(F)(F)F)cccc12)C(=O)NCCCCNc1cc(C(F)(F)F)nc2c(C(F)(F)F)cccc12 is ____.
10

###

target: Acetylcholinesterase (Homo sapiens); experiment: Inhibition of human AChE
Sequence (P22303 whole entry): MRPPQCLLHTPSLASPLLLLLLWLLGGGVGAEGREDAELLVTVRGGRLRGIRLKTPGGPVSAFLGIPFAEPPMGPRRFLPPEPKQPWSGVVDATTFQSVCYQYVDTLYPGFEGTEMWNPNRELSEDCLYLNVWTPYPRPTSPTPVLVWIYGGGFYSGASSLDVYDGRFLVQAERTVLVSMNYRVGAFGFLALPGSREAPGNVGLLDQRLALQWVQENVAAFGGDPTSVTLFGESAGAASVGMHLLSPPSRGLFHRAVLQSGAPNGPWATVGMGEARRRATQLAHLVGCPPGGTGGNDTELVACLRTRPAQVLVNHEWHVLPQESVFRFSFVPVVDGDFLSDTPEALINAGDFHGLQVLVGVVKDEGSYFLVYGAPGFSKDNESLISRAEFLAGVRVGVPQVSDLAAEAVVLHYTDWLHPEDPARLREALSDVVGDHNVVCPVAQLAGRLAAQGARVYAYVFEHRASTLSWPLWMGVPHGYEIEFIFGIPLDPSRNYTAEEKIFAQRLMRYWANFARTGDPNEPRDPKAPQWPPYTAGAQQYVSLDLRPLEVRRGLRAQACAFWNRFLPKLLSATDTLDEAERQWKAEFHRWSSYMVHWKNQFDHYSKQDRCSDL
QUANTITY KIND: pIC50
One number for each entry, as −log10 of the molar value.

COn1cc(CCNC(=S)NCCCCCNc2c3c(nc4ccccc24)CCCC3)c2ccccc21 | 7.15

// next item, pIC50 requested
I would be grateful if you could share the reported pIC50 for S=C(NCCCCNc1c2c(nc3ccccc13)CCCC2)NCCc1c[nH]c2ccccc12 .
7.60

###

test: Cytotoxicity against human HEp-2 cells assessed as reduction in cell viability incubated for 3 to 10 days by MTS assay; assay type: toxicity, cell-based; settings: time 3-10 day
QUANTITY KIND: CC50 (µM)
One number for each entry, in µM.

Which CC50 reading was recorded for the compound C/C(=C\C(=O)NCCCCNc1cc(C(F)(F)F)nc2c(C(F)(F)F)cccc12)C(=O)NCCCCNc1cc(C(F)(F)F)nc2c(C(F)(F)F)cccc12 ?
6.7

###

test: Antiproliferative activity against human Caco-2 cells assessed as cell growth inhibition incubated for 72 hrs by MTT assay; type: toxicity, cell-based
For each of the compounds below, state its GI50 at 72 h.
Numbers only, in µM.

O=C(NCCNc1ccnc2cc(Cl)ccc12)c1ccc(-c2nc3ccccc3[nH]2)cc1 | 16.4

From here, focus on the item given below.
Tell me the measured GI50 at 72 h of Clc1ccc2c(Nc3cccc(-c4nc5ccccc5[nH]4)c3)ccnc2c1 , please.
1

###

assay: Cytotoxicity against human Huh-7 cells assessed as reduction in cell viability incubated for 2 days by MTT assay; format: toxicity, cell-based; settings: time 2 day
QUANTITY KIND: CC50 at 48 h (µM)
One number for each entry, in µM.

Worked cases, answers included:
CCN(CCCC(C)Nc1ccnc2cc(Cl)ccc12)CCNC(=O)C(F)(F)C1CCN(CC(O)C(F)(F)F)CC1 (stereo not drawn) | 16.7
CCN(CCCC(C)Nc1ccnc2cc(Cl)ccc12)CCNC(=O)C(F)(F)C1CCN(CCOCCOC)CC1 (stereo not drawn) | 5.75

Given the entry CCN(CCCC(C)Nc1ccnc2cc(Cl)ccc12)CCNC(=O)C(F)(F)C1CCN(C(=O)C2OC(OC)C3OC(C)(C)OC23)CC1 (stereo not drawn) , report its measured CC50 at 48 h.
16.9

###

test system: Huh-7; test: Antiproliferative activity against human Huh-7 cells assessed as reduction in cell proliferation incubated for 24 hrs by MTT assay; type: functional, cell-based; conditions: Huh-7, 24 h
QUANTITY KIND: IC50 (µM)
Numbers only, in µM.

May I ask what IC50 has been recorded for O=C(N/N=C/c1cc(O)ccc1O)c1ccc(Nc2ccnc3ccccc23)cc1 ?
18.6

###

For reference, IC50 measured on Cholinesterase (Homo sapiens, UniProt P06276):
Answers are plain numbers, in nM.

CC(C)(C)c1ccc(/C=N/CCNc2c3c(nc4ccccc24)CCCCC3)c(C(C)(C)C)c1O | 419

State the recorded IC50 for every item in the following list.
1. S=C(NCCCCNc1c2c(nc3ccccc13)CCCC2)NCCc1c[nH]c2ccccc12
2. Cc1ccc(S(=O)(=O)NCCCCCNc2c3c(nc4ccccc24)CCCC3)cc1
3. CC(C)(C)c1ccc(CNCCNc2c3c(nc4ccccc24)CCCCC3)c(C(C)(C)C)c1O
4. Cc1ccc(S(=O)(=O)NCCCCNc2c3c(nc4ccccc24)CCCC3)cc1

1. 76
2. 68
3. 84
4. 131

For the compound COn1cc(CCNC(=S)NCCCCCNc2c3c(nc4ccccc24)CCCC3)c2ccccc21 , what IC50 is on record?
39

###

assay: Growth inhibition of human MCF-10A cells incubated for 48 hrs by SRB assay; type: toxicity, cell-based
QUANTITY KIND: GI50 at 48 h (µM)
One number for each entry, in µM.

# get_value(readout='GI50 at 48 h', item= O=[N+]([O-])c1ccc(S(=O)(=O)N2CCN(c3ccnc4cc(Cl)ccc34)CC2)c([N+](=O)[O-])c1 )
12.3

###

system: MCF7; assay: Antiproliferative activity against human MCF7 cells assessed as reduction in cell viability incubated for 24 hrs by MTT assay; type: functional, cell-based; details: MCF7, 24 h
QUANTITY KIND: pIC50
One number for each entry, as −log10 of the molar value.

Look at this molecule and give its reported pIC50. O=c1cc(CCl)n(CCCNc2ccnc3cc(Cl)ccc23)cc1OCc1ccccc1
5.90

###

tested on: MCF7; assay: Antiproliferative activity against human MCF7 cells; assay type: functional, cell-based
QUANTITY KIND: IC50 (µM)
Answers are plain numbers, in µM.

C=CC1(O)c2ccccc2Nc2c1c(-n1ccnc1)nc1ccc(Br)cc21 (configuration not stated) | 0.54

Shift focus to the following entry.
Bench note: what IC50 did CC(=O)n1c2ccccc2c(=O)c2c(-n3ccnc3)nc3ccc(Br)cc3c21 show?
0.62

###

experiment: Cytotoxicity against human L02 cells incubated for 24 hrs by MTT assay; format: toxicity, cell-based
QUANTITY KIND: IC50 at 24 h (µM)
Numbers only, in µM.

So what's the measured IC50 at 24 h for this one? CCC[n+]1cc(C(=O)OCC)c(Nc2ccc(OCc3ccccc3)cc2)c2cc3c(cc21)OCO3
54.5

###

assay: Cytotoxicity against MDCK cells assessed as cell growth inhibition incubated for 72 hrs by MTT assay; type: toxicity, cell-based, Canis lupus familiaris; conditions: dog
QUANTITY KIND: IC50 at 72 h (µM)
Give bare numbers, in µM.

Clc1ccc2c(Nc3cccc(-c4nc5ccccc5[nH]4)c3)ccnc2c1 | 20.4

We now examine a further molecule.
Which value of IC50 at 72 h has been reported for O=C(NCCNc1ccnc2cc(Cl)ccc12)c1ccc(-c2nc3ccccc3[nH]2)cc1 in the records?
100

###

molecular target: Cholinesterase (Equus caballus); test: Inhibition of equine serum BChE using […] as substrate measured within 2 mins
Sequence (P81908 whole entry): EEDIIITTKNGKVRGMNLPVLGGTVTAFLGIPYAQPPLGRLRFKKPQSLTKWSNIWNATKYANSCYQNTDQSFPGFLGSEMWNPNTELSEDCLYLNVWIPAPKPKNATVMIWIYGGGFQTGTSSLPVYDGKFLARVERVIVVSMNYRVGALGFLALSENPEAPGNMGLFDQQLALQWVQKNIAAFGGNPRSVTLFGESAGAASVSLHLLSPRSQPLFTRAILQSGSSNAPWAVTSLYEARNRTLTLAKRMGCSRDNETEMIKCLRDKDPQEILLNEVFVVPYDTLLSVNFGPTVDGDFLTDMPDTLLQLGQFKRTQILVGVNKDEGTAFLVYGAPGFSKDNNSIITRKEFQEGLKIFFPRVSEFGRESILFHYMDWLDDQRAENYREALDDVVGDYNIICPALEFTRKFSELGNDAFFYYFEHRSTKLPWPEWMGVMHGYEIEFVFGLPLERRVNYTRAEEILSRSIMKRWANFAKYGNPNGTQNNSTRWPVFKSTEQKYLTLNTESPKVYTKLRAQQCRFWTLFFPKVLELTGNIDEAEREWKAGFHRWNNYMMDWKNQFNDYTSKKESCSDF
Kindly supply the reported IC50 values for the records listed here.
Numbers only, in µM.

For each of the molecules below, state IC50.
1. Nc1c2c(nc3c1C(c1ccc(F)cc1)C1=C(O3)C(=O)c3ccccc3C1=O)CCCC2 (configuration not stated)
2. Nc1c2c(nc3c1C(c1cccc([N+](=O)[O-])c1)C1=C(O3)C(=O)c3ccccc3C1=O)CCCC2 (configuration not stated)

[13.8, 6.03]

###

tested on: MCF7; test: Cytotoxicity against human MCF7 cells; type: functional, cell-based
QUANTITY KIND: IC50

Which IC50 reading was recorded for the compound CC1(C)CC[C@]2(C(=O)O)CC[C@]3(C)C(=CC[C@@H]4[C@@]5(C)CC[C@H](O)C(C)(C)[C@@H]5CC[C@]43C)[C@@H]2C1 ?
> 200 µM

###

So I've got a bunch of compounds here, and I need their pIC50 values.
tested on: HepG2; experiment: Anticancer activity against human HepG2 cells incubated for 48 hrs by MTT assay; type: functional, cell-based; conditions: HepG2, 48 h
Answers are plain numbers, as −log10 of the molar value.

Take each entry in turn and give its pIC50.
1. S=C(NNc1ccnc2cc(Cl)ccc12)Nc1nc(Nc2ccc(Cl)cc2)nc(Nc2ccc(Cl)cc2)n1
2. CN(C)CCCNc1c(-c2nc3ccccc3s2)cnc2ccccc12

4.34
5.31
